molecular target: ZFP SBS#1274 (synthetic); experiment: EMSA; settings: tags: MBP fusion
Sequence (chain, as listed by the source): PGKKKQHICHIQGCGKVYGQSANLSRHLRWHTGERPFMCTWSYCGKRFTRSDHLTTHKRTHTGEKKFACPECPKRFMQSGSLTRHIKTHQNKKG
result type: pKd
Recall that pKd is obtained by taking minus log10 of the concentration measured in molar.

Name the reported pKd value associated with the binder GCATGGGAA (dsDNA) DNA 1: GCATGGGAA DNA 2: TTCCCATGC
9.51
